Recorded values, source the supplement of paper PMC10011410.

test system: U-2 OS; experiment: cell painting activity score (Mahalanobis distance from DMSO wells); higher = stronger morphological phenotype; conditions: 2.5 µM; 24 h
Mark Not met for cell painting activity score values under 10, and Met for everything at or above.

See these solved cases before continuing.
Cc1[nH]c2ccccc2c1CCNCc1ccc(/C=C/C(=O)NO)cc1 | Met
O=C(Nc1nc(-c2ccccc2)ns1)c1cccs1 | Not met
O=C1O[C@H]2[C@@H]3OC(=O)c4cc(O)c(O)c(O)c4-c4c(O)c(O)c5oc(=O)c6c(c(O)c(O)c7oc(=O)c4c5c76)-c4c(cc(O)c(O)c4O)C(=O)OC[C@H]3OC(O)[C@@H]2OC(=O)c2cc(O)c(O)c(O)c2-c2c1cc(O)c(O)c2O (some centres undefined) | Not met
CN(C)/N=N/c1nc[nH]c1C(N)=O | Not met
Cc1ccc(C(=O)N(CCCN)[C@@H](c2oc3cc(Cl)ccc3c(=O)c2Cc2ccccc2)C(C)C)cc1.Cl | Met

Q. Can O=c1c2ccccc2[se]n1-c1ccccc1 be said to have cell painting activity score at or above 10?
A. Met

Q. Can COc1cc([C@@H]2c3cc4c(cc3[C@H](O)[C@H]3COC(=O)[C@H]23)OCO4)cc(OC)c1OC be said to have cell painting activity score at or above 10?
A. Met

Q. Can c1cc(SSc2ccns2)sn1 be said to have cell painting activity score at or above 10?
A. Not met

Q. Can CC(C)(C)C1=CC(=O)C=CC1=O be said to have cell painting activity score at or above 10?
A. Met

* * *

tested on: U-2 OS; test: cell painting activity score (Mahalanobis distance from DMSO wells); higher = stronger morphological phenotype; conditions: 2.5 µM; 24 h
Readings of cell painting activity score for the listed molecules
# output: bare number, no unit

Example molecules with recorded cell painting activity score:
CC(C)([C@](C1=O)(C2=O)C/C=C(C)\C)[C@@H](C[C@]31C[C@@H](C(C)(OC3=C2C(C4=CC(O)=C(C=C4)O)=O)C)C/C=C(C)\C)C/C=C(C)\C | 6.36
CC[C@H](C)[C@@H]1NC(=O)CNC(=O)[C@@H]2Cc3c([nH]c4cc(O)ccc34)S(=O)C[C@H](NC(=O)CNC1=O)C(=O)N[C@@H](CC(=O)O)C(=O)N1C[C@H](O)C[C@H]1C(=O)N[C@@H]([C@@H](C)[C@@H](O)CO)C(=O)N2 (some centres not stated) | 6.25
Nc1nc(-c2ccccc2)[n+](-c2ccccc2)s1 | 2.65
C[C@@H]1C[C@@H]([C@H](O)CC2CC(=O)NC(=O)C2)C(=O)[C@@H](C)C1 | 11.4

Q. cell painting activity score lookup needed for COC(=O)c1ccc([C@H]2c3[nH]c4ccccc4c3C[C@H](C(=O)OC)N2C(=O)CCl)cc1 , thanks.
A. 11.1

Q. cell painting activity score lookup needed for CC(C)C[C@H](NC(=O)[C@H](CCc1ccccc1)NC(=O)CN1CCOCC1)C(=O)N[C@@H](Cc1ccccc1)C(=O)N[C@@H](CC(C)C)C(=O)[C@@]1(C)CO1 , thanks.
A. 32.5

Q. cell painting activity score lookup needed for CCCCCCCCCCCCCCCCCCOP(=O)([O-])OC1CC[N+](C)(C)CC1 , thanks.
A. 3.03

* * *

Readings of relative cell count for the listed molecules
test system: U-2 OS; assay: relative cell count vs DMSO (cell painting) (fraction of DMSO control); higher = more cells remaining (less cytotoxic); conditions: 5 µM; 24 h
# output: bare number, no unit

CC1(C)CCC2=C(O1)c1ccccc1C(=O)C2=O | 0.933
CNc1nc(-c2ccccc2)[n+](-c2ccccc2)s1 | 0.992
CCN(CCO)CCCOc1ccc2c(Nc3cc(CC(=O)Nc4cccc(F)c4)[nH]n3)ncnc2c1 | 0.8

Now, please, on to the next molecule.
Q. relative cell count lookup needed for O=C(NNS(=O)(=O)c1ccccc1F)c1cc(F)cc(-c2ccccn2)c1 , thanks.
A. 0.955

* * *

test system: U-2 OS; experiment: relative cell count vs DMSO (cell painting) (fraction of DMSO control); higher = more cells remaining (less cytotoxic); conditions: 1.25 µM; 24 h
QUANTITY_MEASURED: relative cell count
# output: bare number, no unit

Example compounds with recorded relative cell count:
CS(=O)(=O)OCCCCOS(C)(=O)=O | 0.863
CC(C)(C)C(=O)OCOc1cccc2c1C(=O)C1C3C=CC(CC3)C1C2=O (stereo not drawn) | 0.963

Q. relative cell count lookup needed for Cc1cnc(CNC(=O)c2c(=O)c3ccc(N4CCCN(C)CC4)nc3n3c2sc2ccccc23)cn1 , thanks.
A. 0.607

Q. relative cell count lookup needed for CC(C)[C@H]1OC(=O)[C@H](Cc2ccccc2)N(C)C(=O)[C@@H](C(C)C)OC(=O)[C@H](Cc2ccccc2)N(C)C(=O)[C@@H](C(C)C)OC(=O)[C@H](Cc2ccccc2)N(C)C1=O , thanks.
A. 0.957

Q. relative cell count lookup needed for Cc1[nH]c2ccccc2c1CCNCc1ccc(/C=C/C(=O)NO)cc1 , thanks.
A. 0.472

Q. relative cell count lookup needed for CN1C(=O)[C@]23CC4=CC=C[C@H](O)[C@H]4N2C(=O)[C@@]1(CO)SS3 , thanks.
A. 0.0207

* * *

tested on: U-2 OS; experiment: cell painting activity score (Mahalanobis distance from DMSO wells); higher = stronger morphological phenotype; details: 1.25 µM; 24 h
# label = bin(measured cell painting activity score), where bins are low interval = under 4, middle interval = from 4 up to 6, high interval = 6 and over

CCN1CCN(c2ccc3nsnc3c2[N+](=O)[O-])CC1 | middle interval

Q. Field: class (cell painting activity score) — entry: C[C@@H]1O[C@@H](O[C@H]2[C@H](OC(=O)[C@]34CCC(C)(C)C[C@H]3C3=CC[C@@H]5[C@@]6(C)C[C@H](O)[C@H](O[C@@H]7O[C@H](CO)[C@@H](O)[C@H](O)[C@H]7O)[C@@](C)(CO)[C@@H]6CC[C@@]5(C)[C@]3(C)CC4)O[C@H](CO)[C@@H](O)[C@@H]2O)[C@H](O)[C@H](O)[C@H]1O[C@@H]1OC[C@@H](O)[C@H](O)[C@H]1O
A. middle interval

Q. Field: class (cell painting activity score) — entry: CN(C)C/C=C/C(=O)Nc1ccc(C(=O)Nc2cccc(Nc3ncc(Cl)c(-c4c[nH]c5ccccc45)n3)c2)cc1
A. high interval

Q. Field: class (cell painting activity score) — entry: C[C@@H]1O[C@@H](O[C@H]2[C@H](O[C@H]3CC[C@@]4(C)[C@@H](CC[C@]5(C)[C@@H]4CC=C4[C@@H]6CC(C)(C)CC[C@]6(C(=O)O[C@@H]6O[C@H](CO[C@@H]7O[C@H](CO)[C@@H](O[C@@H]8O[C@@H](C)[C@H](O)[C@@H](O)[C@H]8O)[C@H](O)[C@H]7O)[C@@H](O)[C@H](O)[C@H]6O)CC[C@]45C)[C@]3(C)CO)OC[C@H](O)[C@@H]2O)[C@H](O)[C@H](O)[C@H]1O
A. middle interval

* * *

tested on: U-2 OS; assay: relative cell count vs DMSO (cell painting) (fraction of DMSO control); higher = more cells remaining (less cytotoxic); conditions: 1.25 µM; 24 h
Readings of relative cell count for the listed compounds
# output: bare number, no unit

Example compounds with recorded relative cell count:
C/C(=C\c1csc(C)n1)[C@@H]1C[C@@H]2O[C@]2(C)CCC[C@H](C)[C@H](O)[C@@H](C)C(=O)C(C)(C)[C@@H](O)CC(=O)O1 | 0.223
CCCC1(c2ccccc2)NC(=O)N(CC(=O)N(C)Cc2c(F)cccc2Cl)C1=O (centres undefined) | 0.978
C[C@@H]1O[C@@H](O[C@H]2[C@H](O[C@H]3CC[C@@]4(C)[C@@H](CC[C@]5(C)[C@@H]4CC=C4[C@@H]6CC(C)(C)CC[C@]6(C(=O)O)CC[C@]45C)[C@]3(C)CO)OC[C@H](O[C@@H]3O[C@H](CO)[C@@H](O)[C@H](O)[C@H]3O)[C@@H]2O)[C@H](O)[C@H](O)[C@H]1O | 0.143

Now, please, on to the next compound.
Q. relative cell count lookup needed for CCCCCCCc1ccc(CCc2cccc(O)c2C(=O)O)cc1 , thanks.
A. 1.11

* * *

test system: U-2 OS; experiment: cell painting activity score (Mahalanobis distance from DMSO wells); higher = stronger morphological phenotype; conditions: 1.25 µM; 24 h
Readings of cell painting activity score for the listed compounds

Q. cell painting activity score lookup needed for Cl.Cl.O=C(O)Cn1nnc(-c2ccc(CN(CCCCOc3ccc(CN4CCCC4)cc3)CCc3ccccc3)cc2)n1 , thanks.
A. 5.3

Q. cell painting activity score lookup needed for O=C1Cc2c([nH]c3ccc(Br)cc23)-c2ccccc2N1 , thanks.
A. 10.8

Q. cell painting activity score lookup needed for Cc1csc(=NC2CCCCC2)n1/N=C/c1ccc(O)c(O)c1O , thanks.
A. 7.67

Q. cell painting activity score lookup needed for CO[C@@H]1[C@H](N(C)C(=O)c2ccccc2)C[C@H]2O[C@]1(C)n1c3ccccc3c3c4c(c5c6ccccc6n2c5c31)C(=O)NC4 , thanks.
A. 15.2
